Test system: 282377-053-R-J1-PDC complex spheroid viability
assay.name: Anticancer human tumor 282377-053-R-J1-PDC patient-derived colon adenocarcinoma cell line growth inhibition [POLQ]
condition.details: second compound 1 µM; first compound 1 µM; active compounds read low
Parameter viability, T/C: see the listing below.
Give just the number in %; leave the unit off.

In the examples that follow, each entry is paired with its recorded viability, T/C.
| compound | assay.target | viability, T/C / % |
| --- | --- | --- |
| COc1cccc(OCCCN)c1-c1cc(Nc2cnc(C#N)cn2)n[nH]1 + Cc1cccc(N(C)C(=O)C2C(O)CCN2c2nc(C)cc(C(F)(F)F)c2C#N)c1 | 282377-053-R-J1-PDC complex spheroid viability | 45.1 |
| CCCS(=O)(=O)Nc1ccc(F)c(C(=O)c2c[nH]c3ncc(-c4ccc(Cl)cc4)cc23)c1F + COC1C(OC(N)=O)C(O)C(Oc2ccc3c(O)c(NC(=O)c4ccc(O)c(CC=C(C)C)c4)c(=O)oc3c2C)OC1(C)C | 282377-053-R-J1-PDC complex spheroid viability | 58.5 |
| Nc1ccn(C2OC(CO)C(O)C2(F)F)c(=O)n1 (stereo unspecified) + Nc1ccc(C#CCN(C(=O)Cc2ncc(C(F)(F)F)cc2C(F)(F)F)c2ccc(F)cc2)nn1 | 282377-053-R-J1-PDC complex spheroid viability | 92.6 |

Now turn to the next compound.
For 282377-053-R-J1-PDC complex spheroid viability, provide viability, T/C of Nc1ccn(C2OC(CO)C(O)C2(F)F)c(=O)n1 (stereo unspecified) + COC1C(OC(N)=O)C(O)C(Oc2ccc3c(O)c(NC(=O)c4ccc(O)c(CC=C(C)C)c4)c(=O)oc3c2C)OC1(C)C please. 33.3

----------
Parameter viability, T/C: see the listing below.
System: 282377-053-R-J1-PDC complex spheroid viability
assay.name: Anticancer human tumor 282377-053-R-J1-PDC cell line growth inhibition [POLQ]
condition.details: second compound 0.316 µM; first compound 0.0316 µM; active compounds read low
Give just the number in %; leave the unit off.

| compound | property.measured | units.text | numeric.value |
| --- | --- | --- | --- |
| CC1COCCN1c1cc(C2(O)CC3CCC(C2)O3)c2cnn(-c3ccn[nH]3)c2n1 (stereo not drawn) + COC1C(OC(N)=O)C(O)C(Oc2ccc3c(O)c(NC(=O)c4ccc(O)c(CC=C(C)C)c4)c(=O)oc3c2C)OC1(C)C | viability, T/C | % | 92.8 |

# viability, T/C lookup, item COc1cccc(OCCCN)c1-c1cc(Nc2cnc(C#N)cn2)n[nH]1 + Cc1cccc(N(C)C(=O)C2C(O)CCN2c2nc(C)cc(C(F)(F)F)c2C#N)c1 86.1

# viability, T/C lookup, item O=C(Nc1ccc(O)c(NS(=O)(=O)c2ccc(F)cc2)c1)c1ccc(-c2ccccc2)cc1 + COC1C(OC(N)=O)C(O)C(Oc2ccc3c(O)c(NC(=O)c4ccc(O)c(CC=C(C)C)c4)c(=O)oc3c2C)OC1(C)C 115

----------
Test system: 282377-053-R-J1-PDC complex spheroid viability
assay.name: Anticancer human tumor 282377-053-R-J1-PDC cell line growth inhibition [POLQ];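 note: spheroids exposed to compounds for seven days; 100% = DMSO vehicle control viability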
condition.details: second compound 0.316 µM; first compound 0.0316 µM; active compounds read low
property.measured: viability, T/C (%)
Give just the number in %; leave the unit off.

In the examples that follow, each entry is paired with its recorded viability, T/C.
| molecule | viability, T/C [%] |
| --- | --- |
| CC[C@@]1(O)C(=O)OCc2c1cc1n(c2=O)Cc2cc3c(CN(C)C)c(O)ccc3nc2-1 + Cc1cccc(N(C)C(=O)C2C(O)CCN2c2nc(C)cc(C(F)(F)F)c2C#N)c1 | 107 |
| COc1cc(C2c3cc4c(cc3C(OC3OC5COC(C)OC5C(O)C3O)C3COC(=O)C23)OCO4)cc(OC)c1O (stereo not given) + Nc1ccc(C#CCN(C(=O)Cc2ncc(C(F)(F)F)cc2C(F)(F)F)c2ccc(F)cc2)nn1 | 93.1 |
| Nc1ccn(C2OC(CO)C(O)C2(F)F)c(=O)n1 (stereo not given) + Cc1cccc(N(C)C(=O)C2C(O)CCN2c2nc(C)cc(C(F)(F)F)c2C#N)c1 | 81.7 |
| CCCS(=O)(=O)Nc1ccc(F)c(C(=O)c2c[nH]c3ncc(-c4ccc(Cl)cc4)cc23)c1F + COC1C(OC(N)=O)C(O)C(Oc2ccc3c(O)c(NC(=O)c4ccc(O)c(CC=C(C)C)c4)c(=O)oc3c2C)OC1(C)C | 89.8 |

# viability, T/C lookup, item COc1cccc(OCCCN)c1-c1cc(Nc2cnc(C#N)cn2)n[nH]1 + COC1C(OC(N)=O)C(O)C(Oc2ccc3c(O)c(NC(=O)c4ccc(O)c(CC=C(C)C)c4)c(=O)oc3c2C)OC1(C)C 75.2

----------
Parameter viability, T/C: see the listing below.
Test system: 282377-053-R-J1-PDC complex spheroid viability
assay.name: Anticancer human tumor 282377-053-R-J1-PDC cell line growth inhibition [POLQ];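 note: spheroids exposed to compounds for seven days; 100% = DMSO vehicle control viability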
condition.details: second compound 0.0316 µM; first compound 0.1 µM; active compounds read low
Give just the number in %; leave the unit off.

| compound | numeric.value |
| --- | --- |
| CCc1c2c(nc3ccc(O)cc13)-c1cc3c(c(=O)n1C2)COC(=O)[C@]3(O)CC + Cc1cccc(N(C)C(=O)C2C(O)CCN2c2nc(C)cc(C(F)(F)F)c2C#N)c1 | 49.2 |

Now turn to the next compound.
# viability, T/C lookup, item O=C(Nc1ccc(O)c(NS(=O)(=O)c2ccc(F)cc2)c1)c1ccc(-c2ccccc2)cc1 + COC1C(OC(N)=O)C(O)C(Oc2ccc3c(O)c(NC(=O)c4ccc(O)c(CC=C(C)C)c4)c(=O)oc3c2C)OC1(C)C 117

----------
Test system: 282377-053-R-J1-PDC complex spheroid viability
assay.name: Anticancer human tumor 282377-053-R-J1-PDC cell line growth inhibition [POLQ];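 note: spheroids exposed to compounds for seven days; 100% = DMSO vehicle control viability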
condition.details: second compound 0.0316 µM; first compound 0.316 µM; active compounds read low
Parameter viability, T/C: see the listing below.
Give just the number in %; leave the unit off.

In the examples that follow, each entry is paired with its recorded viability, T/C.
| compound | units.text | viability, T/C |
| --- | --- | --- |
| COc1cccc2c1C(=O)c1c(O)c3c(c(O)c1C2=O)CC(O)(C(=O)CO)CC3OC1CC(N)C(O)C(C)O1 (stereo not drawn) + COC1C(OC(N)=O)C(O)C(Oc2ccc3c(O)c(NC(=O)c4ccc(O)c(CC=C(C)C)c4)c(=O)oc3c2C)OC1(C)C | % | 43.9 |
| C#Cc1c(F)ccc2cc(O)cc(-c3ncc4c(N5CC6CCC(C5)N6)nc(OCC56CCCN5CC(F)C6)nc4c3F)c12 (stereo not drawn) + Nc1ccc(C#CCN(C(=O)Cc2ncc(C(F)(F)F)cc2C(F)(F)F)c2ccc(F)cc2)nn1 | % | 91.2 |

Now turn to the next compound.
# viability, T/C lookup, item COc1cccc(OCCCN)c1-c1cc(Nc2cnc(C#N)cn2)n[nH]1 + Cc1cccc(N(C)C(=O)C2C(O)CCN2c2nc(C)cc(C(F)(F)F)c2C#N)c1 60.9

----------
System: 282377-053-R-J1-PDC complex spheroid viability
assay.name: Anticancer human tumor 282377-053-R-J1-PDC cell line growth inhibition [POLQ];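 note: spheroids exposed to compounds for seven days; 100% = DMSO vehicle control viability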
condition.details: second compound 0.0316 µM; first compound 0.316 µM; active compounds read low
Parameter viability, T/C: see the listing below.
Give just the number in %; leave the unit off.

| molecule | viability, T/C [%] |
| --- | --- |
| Nc1ccn(C2OC(CO)C(O)C2(F)F)c(=O)n1 (stereo unspecified) + Nc1ccc(C#CCN(C(=O)Cc2ncc(C(F)(F)F)cc2C(F)(F)F)c2ccc(F)cc2)nn1 | 122 |
| O=c1[nH]cc(F)c(=O)[nH]1 + Cc1cccc(N(C)C(=O)C2C(O)CCN2c2nc(C)cc(C(F)(F)F)c2C#N)c1 | 89.8 |
| C=CC(=O)N1CCN(c2nc(=O)n(-c3c(C)ccnc3C(C)C)c3nc(-c4c(O)cccc4F)c(F)cc23)C(C)C1 (stereo unspecified) + COC1C(OC(N)=O)C(O)C(Oc2ccc3c(O)c(NC(=O)c4ccc(O)c(CC=C(C)C)c4)c(=O)oc3c2C)OC1(C)C | 102 |
| CNCc1ccc(-c2[nH]c3cc(F)cc4c3c2CCNC4=O)cc1 + Cc1cccc(N(C)C(=O)C2C(O)CCN2c2nc(C)cc(C(F)(F)F)c2C#N)c1 | 135 |
| COc1cc(C2c3cc4c(cc3C(OC3OC5COC(C)OC5C(O)C3O)C3COC(=O)C23)OCO4)cc(OC)c1O (stereo unspecified) + Cc1cccc(N(C)C(=O)C2C(O)CCN2c2nc(C)cc(C(F)(F)F)c2C#N)c1 | 128 |

Now turn to the next molecule.
For 282377-053-R-J1-PDC complex spheroid viability, provide viability, T/C of C=CCn1c(=O)c2cnc(Nc3ccc(N4CCN(C)CC4)cc3)nc2n1-c1cccc(C(C)(C)O)n1 + COC1C(OC(N)=O)C(O)C(Oc2ccc3c(O)c(NC(=O)c4ccc(O)c(CC=C(C)C)c4)c(=O)oc3c2C)OC1(C)C please. 91.7
